system: downy bromegrass (Bromus tectorum); test: Test B pre-/postemergence plant response; type: in vivo; conditions: Preemergence; 8 g ai/ha; scale 0 to 100
quantityName: Bromegrass, Downy plant response rating
Reply with just the number.

# compound, Bromegrass, Downy plant response rating
measured = [
    ("CCc1cc(-c2ccc(C(F)(F)F)cc2)nn1-c1c(O)cnn(CC)c1=O [Compound 67]", 50),
    ("CCc1cc(-c2ccc(Cl)cc2)nn1-c1c(OC(=O)OC(C)C)cnn(C)c1=O [Compound 41]", 70),
    ("Cc1cc(-c2ccc(Cl)cc2)nn1-c1c(OS(=O)(=O)c2ccccc2[N+](=O)[O-])cnn(C)c1=O [Compound 51]", 0),
]

Now consider a different compound.
Simply: Cc1cc(-c2ccc(Cl)cc2)nn1-c1c(OC(=S)N(C)C)cnn(C)c1=O [Compound 69] , downy bromegrass (Bromus tectorum), Bromegrass, Downy plant response rating = 0

###

system: woolly cupgrass (Eriochloa villosa); experiment: Test B pre-/postemergence plant response; assay type: in vivo; conditions: 8 g ai/ha, postemergence; 0-100 scale
quantityName: Cupgrass, Woolly plant response rating

Illustrative cases are given below, each with its answer.
# smilesStr, tgt, Cupgrass, Woolly plant response rating
data = [
    ("Cc1cc(-c2ccc(Cl)cc2)nn1-c1c(OC(=S)N(C)C)cnn(C)c1=O", "woolly cupgrass (Eriochloa villosa)", 20),
    ("Cc1nn(C)c(=O)c(-n2nc(-c3ccc(Br)cc3)cc2C)c1O", "woolly cupgrass (Eriochloa villosa)", 75),
    ("CCc1cc(-c2ccc(Br)cc2)nn1-c1c(O)cnn(C)c1=O", "woolly cupgrass (Eriochloa villosa)", 98),
]

Consider the additional molecule presented here.
Record CCc1cc(-c2ccc(C(F)(F)F)cc2)nn1-c1c(OS(C)(=O)=O)cnn(C)c1=O , field Cupgrass, Woolly plant response rating: 90

###

System: johnsongrass (Sorghum halepense)
Assay: Test B pre-/postemergence plant response
Type: in vivo
Conditions: Preemergence, 16 g ai/ha; scale 0 to 100 (0 no effect, 100 complete control)
Text: […] Plant species in the flooded paddy test consisted of rice (Oryza sativa), umbrella sedge (Cyperus difformis), ducksalad (Heteranthera limosa) and barnyardgrass (Echinochloa crus-galli) grown to the 2-leaf stage for testing. […] Treated plants and controls were maintained in a greenhouse for 13 to 15 days, after which time all species were compared to controls and visually evaluated. […]
Label y when Plant response rating, Johnsongrass is at or above 90; anything below gets n.

# smilesStr, labelClass
measured = [
    ("Cc1cc(-c2ccc(Cl)cc2)nn1-c1c(OC(=O)c2ccccc2)cnn(C)c1=O", "n"),
    ("CCc1cc(-c2ccc(F)cc2)nn1-c1c(O)cnn(C)c1=O", "n"),
]

Is Plant response rating, Johnsongrass at least 90? Consider CCc1cc(-c2ccc(Cl)cc2)nn1-c1c(OC(=O)C(C)(C)C)cnn(C)c1=O
y

Decide: Plant response rating, Johnsongrass of CCc1cc(-c2ccc(Cl)cc2)nn1-c1c(OC(=O)OC(C)C)cnn(C)c1=O >= 90?
n

hey, is Plant response rating, Johnsongrass for this one >= 90? Cn1ncc(O)c(-c2nn(-c3ccc(Cl)cc3)cc2Br)c1=O
n

###

test system: umbrella sedge (Cyperus difformis); assay: Test B flooded paddy test plant response; format: in vivo; settings: Flood, 31 g ai/ha; scale 0 to 100
quantityName: Plant response rating, Sedge, Umbrella

Plant response rating, Sedge, Umbrella measured on CCc1cc(-c2ccc(Cl)s2)nn1-c1c(O)cnn(C)c1=O = 0

// sample COCc1cc(-c2ccc(Br)cc2)nn1-c1c(O)cnn(C)c1=O , its Plant response rating, Sedge, Umbrella was 0

Value of Plant response rating, Sedge, Umbrella reported for the compound Cc1cc(-c2ccc(Br)cc2)nn1-c1c(OC(=O)OC(C)C)cnn(C)c1=O is 30

The compound listed as Cc1cc(-c2ccc(Cl)cc2)nn1-c1c(OC(=S)N(C)C)cnn(C)c1=O has a reported Plant response rating, Sedge, Umbrella of 0

Measured Plant response rating, Sedge, Umbrella, Cc1cc(-c2ccc(Cl)cc2)nn1-c1c(OC(=O)c2ccccc2)cnn(C)c1=O : 0

###

test system: spring barley (Hordeum vulgare); assay: Test C pre-/postemergence plant response; type: in vivo; conditions: Preemergence, 62 g ai/ha; scale 0 to 100, 0 no effect, 100 complete control
Readings of Plant response rating, Barley, Spring for the listed compounds
Give only the figure.

Solved cases (3 shown):
# compound, Plant response rating, Barley, Spring
data = [
    ("COC(=O)Oc1cnn(C)c(=O)c1-n1nc(-c2ccc(Cl)cc2)cc1C [Compound 33]", 25),
    ("Cc1cn(-c2ccc(Cl)cc2)nc1-c1c(O)cnn(C)c1=O [Compound 30]", 50),
    ("CCc1cc(-c2ccc(C(F)(F)F)cc2)nn1-c1c(OS(C)(=O)=O)cnn(C)c1=O [Compound 19]", 80),
]

CCc1cc(-c2ccc(F)cc2)nn1-c1c(O)cnn(C)c1=O [Compound 25] yielded Plant response rating, Barley, Spring of 0

###

Listed next: entries and their corresponding Plant response rating, Canarygrass.
test system: canarygrass (Phalaris minor); experiment: Test B postemergence plant response; type: in vivo; settings: Postemergence, 31 g ai/ha; scale 0 to 100, 0 no effect, 100 complete control
Lab note: record the figure alone, no unit after it.

// CCc1cc(-c2ccc(Cl)cc2)nn1-c1c(OC(=O)OC(C)C)cnn(C)c1=O [Compound 41] : Plant response rating, Canarygrass value = 0

Given item CCc1c(C)c(-c2ccc(Cl)cc2)nn1-c1c(O)cnn(C)c1=O [Compound 26] , the value recorded as its Plant response rating, Canarygrass is 60

Entry Cc1cc(-c2ccc(C(F)(F)F)cc2)nn1-c1c(O)cnn(C)c1=O [Compound 1] — recorded Plant response rating, Canarygrass = 0

// sample Cc1cc(-c2ccc(Br)cc2)nn1-c1c(O)cnn(C)c1=O [Compound 4] , its Plant response rating, Canarygrass was 80

Lab book: Plant response rating, Canarygrass of Cc1cc(-c2ccc(Cl)cc2)nn1-c1c(OC(=O)C(C)C)cnn(C)c1=O [Compound 34] noted as 20

###

test system: wild oat (Avena fatua); assay: Test B pre-/postemergence plant response; assay type: in vivo; conditions: Postemergence, 62 g ai/ha; scale 0 to 100, 0 no effect, 100 complete control
quantityName: Plant response rating, Oat, Wild
Could you respond with only the numeric value?

Consider the reported Plant response rating, Oat, Wild for these molecules:
# molecule, Plant response rating, Oat, Wild
data = [
    ("COC(=O)Oc1cnn(C)c(=O)c1-n1nc(-c2ccc(Cl)cc2)cc1C [Compound 33]", 98),
    ("Cc1cc(-c2ccc(Cl)cc2)nn1-c1c(OC(=S)N(C)C)cnn(C)c1=O [Compound 69]", 90),
    ("Cc1cc(-c2ccc(Cl)cc2)nn1-c1c(OC(=O)OCC(C)C)cnn(C)c1=O [Compound 57]", 98),
    ("COCc1cc(-c2ccc(Br)cc2)nn1-c1c(O)cnn(C)c1=O [Compound 68]", 40),
    ("Cc1cc(-c2ccc(Cl)cc2)nn1-c1c(OS(C)(=O)=O)cnn(C)c1=O [Compound 36]", 90),
]

Input Cc1nn(C)c(=O)c(-n2nc(-c3ccc(Br)cc3)cc2C)c1O [Compound 81] . Output Plant response rating, Oat, Wild: 100

The recorded Plant response rating, Oat, Wild for entry CCc1cc(-c2ccc(Cl)cc2)nn1-c1c(OS(C)(=O)=O)cnn(C)c1=O [Compound 39] equals 100

###

tested on: winter barley (Hordeum vulgare); experiment: Test B postemergence plant response; format: in vivo; settings: Postemergence, 16 g ai/ha; scale 0 to 100, 0 no effect, 100 complete control
Overview of reported Plant response rating, Barley across a group of compounds:
Give only the figure.

# compound, Plant response rating, Barley
rows = [
    ("Cc1nn(C)c(=O)c(-n2nc(-c3ccc(C(F)(F)F)cc3)cc2C)c1O [Compound 75]", 0),
    ("Cc1cc(-c2ccc(Cl)cc2)nn1-c1c(OS(C)(=O)=O)cnn(C)c1=O [Compound 36]", 0),
    ("CCc1cc(-c2ccc(C(F)(F)F)cc2)nn1-c1c(O)cnn(CC)c1=O [Compound 67]", 85),
]

Attention now turns to another entry.
Measured Plant response rating, Barley of CCc1cc(-c2ccc(Cl)cc2)nn1-c1c(OC(=O)C(C)(C)C)cnn(C)c1=O [Compound 40] : 40

###

test system: green foxtail (Setaria viridis); experiment: Test E pre-/postemergence plant response; format: in vivo; conditions: 16 g ai/ha, Preemergence, scale 0 to 100
quantityName: Plant response rating, Foxtail, Green

Would you please look over these solved cases?
# smilesStr, Plant response rating, Foxtail, Green
measured = [
    ("Cn1ncc(O)c(-c2nn(-c3ccc(Cl)cc3)cc2Br)c1=O", 5),
    ("Cc1cc(-c2ccc(Cl)cc2)nn1-c1c(OS(C)(=O)=O)cnn(C)c1=O", 60),
    ("CCc1cc(-c2ccc(C(F)(F)F)cc2)nn1-c1c(O)cnn(C)c1=O", 98),
]

Field: next molecule
Quick note, Plant response rating, Foxtail, Green for Cc1cc(-c2ccc(Cl)cc2)nn1-c1c(OC(=O)C(C)C)cnn(C)c1=O landed at 65
